# IC50 per record follows
Tested on: MDA-MB-231
Experiment: Cellular proliferation assay (Alamar blue), MDA-MB-231
Assay type: cell-based
Conditions: Homo sapiens, 10% FCS, 72 hours with compound, Alamar blue 24 h, read-out: MDA/MB231 (cellular proliferation assay, Table 4) (converted)

O=C1NCc2cccc(c2)-c2ccnc(n2)Nc2cccc(c2)CN2C[C@@H](O)C[C@@H]12 ... 6.76 µM
CN1CCCNC(=O)[C@@H]2CCCN2Cc2cc(cc(N3CCOCC3)c2)Nc2nccc(n2)-c2ccc(cc2)C1 ... > 10 µM
COc1ccc2cc1CN(C)CCCNC(=O)[C@H](CO)NCc1cc(Br)cc(c1)Nc1nccc-2n1 ... > 10 µM
O=C1CN2CCN(CC2)Cc2cccc(c2)Nc2nccc(n2)-c2cccc(c2)CN1 ... > 10 µM
COc1ccc2cc1CN(C)CCCNC(=O)[C@H](CO)NCc1cccc(c1)Nc1nccc-2n1 ... > 10 µM
CN1CCCNC(=O)C2CCN(CC2)Cc2cc(cc(N3CCOCC3)c2)Nc2nccc(n2)-c2ccc(cc2)C1 ... > 10 µM
COc1cc2cc(c1OC)CN1CCC[C@H]1C(=O)NCc1cccc(c1)-c1ccnc(n1)N2 ... > 10 µM
CN1CCNC(=O)[C@H](CO)NCc2cc(Br)cc(c2)Nc2nccc(n2)-c2ccc(cc2)C1 ... 7.76 µM

Request: Hello, I am looking for reported IC50 with MDA-MB-231 for COc1ccc2cc1CNCCNC(=O)CN1CCN(CC1)Cc1cc(ccc1N1CCOCC1)Nc1nccc-2n1 . Could you help?
Result: > 10 µM

Request: // repeat for O=C1NCCNCc2ccc(cc2)-c2ccnc(n2)Nc2ccc(N3CCOCC3)c(c2)CN[C@H]1CO and report
Result: > 10 µM

Request: // repeat for COc1cc2cc(c1)Nc1nccc(n1)-c1ccc(OC)c(c1)CN(C)CCCNC(=O)CN1CCN(CC1)C2 and report
Result: > 10 µM

---

Target: PLK4 (h) (Homo sapiens)
Sequence (O00444 whole entry): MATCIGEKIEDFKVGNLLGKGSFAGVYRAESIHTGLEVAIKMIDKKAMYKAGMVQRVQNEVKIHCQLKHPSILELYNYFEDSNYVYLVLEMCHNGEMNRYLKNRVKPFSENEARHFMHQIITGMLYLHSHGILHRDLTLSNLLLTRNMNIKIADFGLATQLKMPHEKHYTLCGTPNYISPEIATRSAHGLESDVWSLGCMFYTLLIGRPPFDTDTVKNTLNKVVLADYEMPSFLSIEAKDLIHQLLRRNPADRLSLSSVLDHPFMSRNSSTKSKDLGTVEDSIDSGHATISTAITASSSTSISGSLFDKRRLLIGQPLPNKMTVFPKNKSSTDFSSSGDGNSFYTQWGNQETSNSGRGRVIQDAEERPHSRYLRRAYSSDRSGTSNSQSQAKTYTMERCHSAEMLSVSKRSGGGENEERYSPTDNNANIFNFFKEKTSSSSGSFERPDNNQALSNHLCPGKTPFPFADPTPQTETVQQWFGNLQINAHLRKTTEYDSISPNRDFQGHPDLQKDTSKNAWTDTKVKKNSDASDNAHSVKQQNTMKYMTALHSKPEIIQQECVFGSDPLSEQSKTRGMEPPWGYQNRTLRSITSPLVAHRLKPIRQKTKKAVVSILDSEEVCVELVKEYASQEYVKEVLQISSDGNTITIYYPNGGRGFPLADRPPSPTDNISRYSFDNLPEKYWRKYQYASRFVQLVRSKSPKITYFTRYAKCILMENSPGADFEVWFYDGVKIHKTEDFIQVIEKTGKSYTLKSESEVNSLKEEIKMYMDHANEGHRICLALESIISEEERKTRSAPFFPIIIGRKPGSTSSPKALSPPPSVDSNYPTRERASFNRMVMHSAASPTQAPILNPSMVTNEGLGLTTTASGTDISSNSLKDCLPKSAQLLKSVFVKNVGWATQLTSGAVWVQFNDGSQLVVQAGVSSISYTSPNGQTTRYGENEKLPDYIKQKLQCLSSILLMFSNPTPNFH
Test: PLK-4 human kinase inhibition, scintillation proximity assay (SPA)
Assay type: biochemical
Conditions: read-out: PLK4 pIC50 (converted)
Assay readout: IC50 (nM)

Known results for compounds:
O=C1NCCNCc2ccc(cc2)-c2ccnc(n2)Nc2ccc(N3CCOCC3)c(c2)CN[C@H]1CO ... 1350
CN1CCNC(=O)C2CCN(CC2)Cc2cc(Br)cc(c2)Nc2nccc(n2)-c2ccc(cc2)C1 ... 537
CN(C)CCNC(=O)c1ccc2cc1CN1CCC[C@H]1C(=O)NCc1cccc(c1)-c1ccnc(n1)N2 ... 355

A. COc1ccc2cc1CN(C)CCNC(=O)[C@H](CO)NCc1cccc(c1)Nc1nccc-2n1
B. CN(C)C(=O)c1ccc2cc1CN1CCC[C@H]1C(=O)NCc1cccc(c1)-c1ccnc(n1)N2
Request: Identify the entry with the larger IC50. Options: A and B // return label of chosen record
Result: A
(A: 7080 nM, B: 77.6 nM)

---

Target: CDK1/CyclinB (h) (Homo sapiens, UniProt P06493)
Sequence (P06493 whole entry): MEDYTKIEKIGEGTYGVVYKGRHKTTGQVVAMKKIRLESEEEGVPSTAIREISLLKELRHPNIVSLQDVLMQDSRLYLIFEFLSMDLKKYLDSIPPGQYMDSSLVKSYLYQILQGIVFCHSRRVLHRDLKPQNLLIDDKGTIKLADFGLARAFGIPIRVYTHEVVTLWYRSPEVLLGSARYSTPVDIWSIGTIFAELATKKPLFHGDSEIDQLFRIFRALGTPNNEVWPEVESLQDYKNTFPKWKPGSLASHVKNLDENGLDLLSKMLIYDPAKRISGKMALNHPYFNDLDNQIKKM
Sequence (P14635 whole entry partner): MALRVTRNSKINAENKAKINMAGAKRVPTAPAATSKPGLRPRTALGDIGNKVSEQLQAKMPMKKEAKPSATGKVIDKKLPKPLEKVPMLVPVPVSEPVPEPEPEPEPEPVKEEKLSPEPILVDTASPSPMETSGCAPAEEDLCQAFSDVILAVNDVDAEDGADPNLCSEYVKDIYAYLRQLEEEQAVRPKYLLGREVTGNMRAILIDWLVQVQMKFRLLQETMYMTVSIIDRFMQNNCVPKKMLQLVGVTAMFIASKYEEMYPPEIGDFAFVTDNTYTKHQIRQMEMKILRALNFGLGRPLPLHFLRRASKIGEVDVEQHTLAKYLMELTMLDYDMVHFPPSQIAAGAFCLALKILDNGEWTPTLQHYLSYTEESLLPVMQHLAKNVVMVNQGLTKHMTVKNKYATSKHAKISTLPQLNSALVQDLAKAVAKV
Assay: CDK1/CyclinB human kinase inhibition, Invitrogen's FRET assay (Z'lyte)
Assay type: biochemical
Settings: read-out: CDK1 pIC50 (converted)
Assay readout: IC50

Known results for molecules:
CN1CCCNC(=O)C2CCN(CC2)Cc2cc(cc(N3CCOCC3)c2)Nc2nccc(n2)-c2ccc(cc2)C1 [Compound 72] ... > 10 µM
O=C1NCc2cccc(c2)-c2ccnc(n2)Nc2ccc(cc2)CN[C@H]1CO [Compound 191] ... > 10 µM
C[C@H]1NCc2cc(ccc2N2CCOCC2)Nc2nccc(n2)-c2cccc(c2)OCCCNC1=O [Compound 87] ... 7.08 µM
O=C1NCc2cccc(c2)-c2ccnc(n2)Nc2ccc(N3CCOCC3)c(c2)CN2CCC[C@@H]12 [Compound 1] ... 4.17 µM
COc1ccc2cc1CN(C)CCCNC(=O)[C@H](CO)NCc1cccc(c1)Nc1nccc-2n1 [Compound 118] ... > 10 µM
CN1CCCNC(=O)[C@@H]2CCCN2Cc2cc(cc(N3CCOCC3)c2)Nc2nccc(n2)-c2ccc(cc2)C1 [Compound 16] ... > 10 µM
COc1ccc2cc1CN(C)CCCNC(=O)[C@@H]1CCCN1Cc1cc(cc(N3CCOCC3)c1)Nc1nccc-2n1 [Compound 179] ... > 10 µM
O=C1NCc2cccc(c2)-c2ccnc(n2)Nc2ccc(cc2)CN2C[C@H](O)C[C@@H]12 [Compound 55] ... > 10 µM
O=C1NCCCc2cc(ccn2)-c2ccnc(n2)Nc2cccc(c2)CN[C@H]1CO [Compound 19] ... 0.0562 µM
CN(C)Cc1cc2cc(c1)Nc1nccc(n1)-c1cccc(c1)CNC(=O)[C@@H]1CCCN1C2 [Compound 30] ... 0.269 µM

Request: Hello, I am looking for reported IC50 with CDK1/CyclinB (h) (Homo sapiens, UniProt P06493) for COc1ccc2cc1CN(C)CCCNC(=O)[C@@H]1CCCN1Cc1cc(Br)cc(c1)Nc1nccc-2n1 [Compound 170] . Could you help?
Result: > 10 µM

Request: // repeat for C[C@@H]1NCc2cccc(c2)Nc2nccc(n2)-c2cccc(c2)CNC1=O [Compound 184] and report
Result: 0.398 µM
